Data provenance is patent US20200317776A1.

assay-system: T1, human TREM2 Fc fusion (entire TREM2 ECD; only one Fc arm fused to TREM2) (human, UniProt Q9NZC2 19-174)
T1 construct: also called huTREM2-Fc; recombinant hTREM2
T1 sequence: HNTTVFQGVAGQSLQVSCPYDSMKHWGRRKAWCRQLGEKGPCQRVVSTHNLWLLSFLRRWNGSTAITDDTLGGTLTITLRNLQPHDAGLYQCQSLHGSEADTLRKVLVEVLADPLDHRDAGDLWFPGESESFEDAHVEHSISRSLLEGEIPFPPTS
test-protocol: BLI, IgG, avid
Can you tell me pKd for the items I'm about to list?
Numbers only, as −log10 of the molar value.

AL2p-36 (antibody, V domains shown, Fab and IgG formats under one id) VH: QVQLVQSGAEVKKPGASVKVSCKASGYAFSSSWMNWVRQAPGQRLEWIGRIYPGDGDTNYARKFQGRVTITADTSASTAYMELSSLRSEDTAVYYCARLLRNQPGASYAMDYWGQGTLVTVSS VL: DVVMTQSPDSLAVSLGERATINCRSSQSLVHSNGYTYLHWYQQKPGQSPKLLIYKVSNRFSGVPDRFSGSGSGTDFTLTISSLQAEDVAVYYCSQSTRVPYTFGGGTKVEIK | 9.31

Batch: pKd for all items listed.
1. AL2p-2 (antibody, V domains shown, AL2p-h50 variant; Fab and IgG formats under one id) VH: QVQLVQSGAEVKKPGSSVKVSCKASGYAFSSSWMNWVRQAPGQGLEWMGRIYPGGGDTNYAQKFQGRVTITADESTSTAYMELSSLRSEDTAVYYCARLLRNQPGESYAMDYWGQGTLVTVSS VL: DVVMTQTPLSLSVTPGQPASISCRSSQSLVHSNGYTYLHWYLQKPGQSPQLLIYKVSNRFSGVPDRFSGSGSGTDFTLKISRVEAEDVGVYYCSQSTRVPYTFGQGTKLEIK
2. AL2p-24 (antibody, V domains shown, Fab and IgG formats under one id) VH: QVQLVQSGAEVKKPGSSVKVSCKASGYAFSSHWMNWVRQAPGQGLEWMGRIYPGGGDTNYAQKFQGRVTITADESTSTAYMELSSLRSEDTAVYYCARLLRNQPGESYAMDYWGQGTLVTVSS VL: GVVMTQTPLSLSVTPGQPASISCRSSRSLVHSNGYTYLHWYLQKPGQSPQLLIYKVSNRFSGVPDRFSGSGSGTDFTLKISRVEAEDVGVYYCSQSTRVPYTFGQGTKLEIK
3. AL2p-37 (antibody, IgG1, V domains shown, Fab and IgG formats under one id; also called AL2p-37 huIgG1) VH: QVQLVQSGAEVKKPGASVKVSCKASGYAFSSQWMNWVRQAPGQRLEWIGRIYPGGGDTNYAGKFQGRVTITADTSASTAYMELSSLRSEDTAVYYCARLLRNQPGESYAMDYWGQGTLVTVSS VL: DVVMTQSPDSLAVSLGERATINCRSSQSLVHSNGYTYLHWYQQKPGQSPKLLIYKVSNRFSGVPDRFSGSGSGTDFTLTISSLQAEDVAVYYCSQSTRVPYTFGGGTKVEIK
4. AL2p-26 (antibody, V domains shown, Fab and IgG formats under one id) VH: QVQLVQSGAEVKKPGSSVKVSCKASGYAFSSHWMNWVRQAPGQGLEWMGRIYPGGGDTNYAQKRQGRVTITADESTSTAYMELSSLRSEDTAVYYCARLLRNQPGESYAMDYWGQGTLVTVSS VL: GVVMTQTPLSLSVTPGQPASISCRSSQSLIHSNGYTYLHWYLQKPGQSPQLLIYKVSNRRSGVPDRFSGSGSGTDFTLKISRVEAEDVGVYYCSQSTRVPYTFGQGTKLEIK
5. AL2p-33 (antibody, V domains shown, Fab and IgG formats under one id) VH: EVQLVQSGAEVKKPGSSVKVSCKASGYAFSSSWMNWVRQAPGQGLEWMGRIYPGDGDTNYAQKFQGRVTITADESTSTAYMELSSLRSEDTAVYYCARLLRNQPGESYAMDYWGQGTLVTVSS VL: GVVMAQTPLSLSVTPGQPASISCRTSQSLVHSNGYTYLHWYLQKPGQSPQLLIYKVSNRVSGVPDRFSGSGSGTDFTLKISRVEAEDVGVYYCSQSTRVPYTFGQGTKLEIK
6. AL2p-h77 (antibody, human IgG1, V domains shown, humanized, human IgG1; Fab and IgG formats under one id; also called A2p-h77) VH: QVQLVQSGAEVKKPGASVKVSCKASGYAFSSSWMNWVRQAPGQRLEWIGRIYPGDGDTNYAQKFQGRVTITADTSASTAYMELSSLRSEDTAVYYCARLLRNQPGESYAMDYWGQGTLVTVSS VL: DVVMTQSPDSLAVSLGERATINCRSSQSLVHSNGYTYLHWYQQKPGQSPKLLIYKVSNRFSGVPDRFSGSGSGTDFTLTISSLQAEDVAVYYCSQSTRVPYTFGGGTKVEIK
7. AL2p-9 (antibody, V domains shown, Fab and IgG formats under one id) VH: QVQLVQSGAEVKKPGSSVKVSCKASGYAFSRSWMNWVRQAPGQGLEWMGRIYPGDGDTNYAQKFQGRVTITADESTSTAYMELSSLRSEDTAVYYCARLLRNQPGASYAMDYWGQGTLVTVSS VL: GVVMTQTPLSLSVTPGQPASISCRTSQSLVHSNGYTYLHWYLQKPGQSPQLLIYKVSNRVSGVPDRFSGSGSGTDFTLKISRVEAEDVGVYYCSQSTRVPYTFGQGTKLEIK

1. 9.08
2. 9.63
3. 9.11
4. 9.70
5. 9.05
6. 8.93
7. 9.46

Required: pKd, one value per binder below.
1. AL2p-35 (antibody, V domains shown, Fab and IgG formats under one id) VH: QVQLVQSGAEVKKPGASVKVSCKASGYAFWSSWMNWVRQAPGQRLEWIGRIYPGDGDTNYAQKFQGRVTITADTSASTAYMELSSLRSEDTAVYYCARLLRNQPGESYAHDYWGQGTLVTVSS VL: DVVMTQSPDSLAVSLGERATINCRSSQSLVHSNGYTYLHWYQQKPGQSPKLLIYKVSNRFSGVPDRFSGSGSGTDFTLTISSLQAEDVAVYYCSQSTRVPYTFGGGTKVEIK
2. AL2p-17 (antibody, V domains shown, Fab and IgG formats under one id) VH: QVQLVQSGAEVKKPGSSVKVSCKASGYAFSSHWMNWVRQAPGQGLEWMGRIYPGDGDTNYAQKRQGRVTITADESTSTAYMELSSLRSEDTAVYYCARLLRNQPGESYAMDYWGQGTLVTVSS VL: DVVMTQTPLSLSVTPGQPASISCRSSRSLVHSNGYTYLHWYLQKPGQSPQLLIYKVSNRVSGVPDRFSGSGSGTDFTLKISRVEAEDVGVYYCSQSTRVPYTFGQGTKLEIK

1. 8.73
2. 9.59
